experiment: The drug is tested on Bacteroides vulgatus strain: ATCC8482 for biotransformation. The drug concentrations were measured before and after a 12-h incubation by liquid-chromatography-coupled mass spectrometry (LC–MS); conditions: phocaeicola vulgatus, 2 µM
endpoint: Bacterial Biotransformation

Known results for compounds:
C=CCN1CC[C@]23c4c5ccc(O)c4O[C@H]2C(=O)CC[C@@]3(O)[C@H]1C5 | Compound metabolized
OC(CCN1CCCCC1)(c1ccccc1)C1CC2C=CC1C2 (stereo not drawn) | Compound metabolized
O=P1(N(CCCl)CCCl)NCCCO1 (stereo not drawn) [CYCLOPHOSPHAMIDE ANHYDROUS] | Compound NOT metabolized
CC(=O)SCC(Cc1ccccc1)C(=O)NCC(=O)OCc1ccccc1 (stereo not drawn) | Compound metabolized
CCCCC(=O)N(Cc1ccc(-c2ccccc2-c2nnn[nH]2)cc1)[C@H](C(=O)O)C(C)C | Compound metabolized
CN(C(=O)CN(CCO)CC(=O)N(C)C(C)(C)Cc1ccccc1)C(C)(C)Cc1ccccc1 | Compound NOT metabolized
CC(=O)OCC(=O)[C@@]12N=C(C)O[C@@H]1C[C@H]1[C@@H]3CCC4=CC(=O)C=C[C@]4(C)[C@H]3[C@@H](O)C[C@@]12C | Compound metabolized
Cc1ccnc2c1NC(=O)c1cccnc1N2C1CC1 | Compound NOT metabolized
CCOC(=O)C1=C[C@]2(CC)CCCN3CCc4c(n1c1ccccc41)[C@@H]32 | Compound NOT metabolized
OCCOCCN1CCN(C2=Nc3ccccc3Sc3ccccc32)CC1 | Compound NOT metabolized

(Q) # lookup: Bacterial Biotransformation of "CCOC(=O)[C@H](CCc1ccccc1)N[C@@H](C)C(=O)N1Cc2ccccc2C[C@H]1C(=O)O"
(A) Compound metabolized

(Q) # lookup: Bacterial Biotransformation of "CC[C@H](C)C(=O)O[C@H]1CCC=C2C=C[C@H](C)[C@H](CC[C@@H]3C[C@@H](O)CC(=O)O3)[C@H]21"
(A) Compound metabolized

----------
settings: akkermansia muciniphila, 12 h, 2 µM
Description: The drug is tested on Akkermansia muciniphila strain: ATCC BAA-835 for biotransformation. The drug concentrations were measured before and after a 12-h incubation by liquid-chromatography-coupled mass spectrometry (LC–MS)
endpoint: Bacterial Biotransformation

COc1ccc2c(c1)c(CC(=O)O)c(C)n2C(=O)c1ccc(Cl)cc1 | Compound metabolized
CC(CN1c2ccccc2Sc2ccccc21)N(C)C (stereo unspecified) | Compound NOT metabolized
CCc1nn(CCCN2CCN(c3cccc(Cl)c3)CC2)c(=O)n1CCOc1ccccc1 | Compound NOT metabolized
CCN(CC)C(=O)/C(C#N)=C/c1cc(O)c(O)c([N+](=O)[O-])c1 | Compound metabolized
CCN(C)C(=O)Oc1cccc([C@H](C)N(C)C)c1.O=C(O)C(O)C(O)C(=O)O [RIVASTIGMINE TARTRATE] | Compound NOT metabolized

(Q) # lookup: Bacterial Biotransformation of "Fc1ccc([C@@H]2CCNC[C@H]2COc2ccc3c(c2)OCO3)cc1"
(A) Compound NOT metabolized

(Q) # lookup: Bacterial Biotransformation of "CN(C(=O)CN(CCO)CC(=O)N(C)C(C)(C)Cc1ccccc1)C(C)(C)Cc1ccccc1"
(A) Compound NOT metabolized

----------
assay: The drug is tested on Bacteroides ovatus strain: ATCC8483 for biotransformation. The drug concentrations were measured before and after a 12-h incubation by liquid-chromatography-coupled mass spectrometry (LC–MS); settings: 2 µM
endpoint: Bacterial Biotransformation

CC(=O)OCC(=O)[C@@]12N=C(C)O[C@@H]1C[C@H]1[C@@H]3CCC4=CC(=O)C=C[C@]4(C)[C@H]3[C@@H](O)C[C@@]12C | Compound metabolized
C#C[C@]1(OC(C)=O)CC[C@H]2[C@@H]3CCC4=C/C(=N/O)CC[C@@H]4[C@H]3CC[C@@]21CC [NORGESTIMATE] | Compound NOT metabolized
CN1C(C(=O)Nc2ccccn2)=C(O)c2sccc2S1(=O)=O | Compound NOT metabolized
CCN(CC)C(C)CN1c2ccccc2Sc2ccccc21 (centres undefined) | Compound metabolized

----------
experiment: The drug is tested on Enterococcus faecalis strain: V583 for biotransformation. The drug concentrations were measured before and after a 12-h incubation by liquid-chromatography-coupled mass spectrometry (LC–MS); conditions: 2 µM
endpoint: Bacterial Biotransformation

Known results for compounds:
C#C[C@]1(OC(C)=O)CC[C@H]2[C@@H]3CCC4=CC(=O)CC[C@@H]4[C@H]3CC[C@@]21C [NORETHINDRONE ACETATE] | Compound NOT metabolized
C[C@]12CCC(=O)C=C1[C@@H]1C[C@@H]1[C@H]1[C@@H]3[C@@H]4C[C@@H]4[C@@]4(CCC(=O)O4)[C@@]3(C)CC[C@@H]12 | Compound NOT metabolized
COc1ccccc1OCCNCC(O)COc1cccc2[nH]c3ccccc3c12 (configuration not stated) | Compound NOT metabolized
O=C(Nc1ccccc1)OCC(CN1CCCCC1)OC(=O)Nc1ccccc1 (configuration not stated) | Compound NOT metabolized
CN1C(=O)CCS(=O)(=O)C1c1ccc(Cl)cc1 (configuration not stated) | Compound NOT metabolized
Fc1ccc([C@@H]2CCNC[C@H]2COc2ccc3c(c2)OCO3)cc1 | Compound NOT metabolized

(Q) # lookup: Bacterial Biotransformation of O=C1N=C([O-])NC1(c1ccccc1)c1ccccc1.[Na+] [PHENYTOIN SODIUM]
(A) Compound NOT metabolized

(Q) # lookup: Bacterial Biotransformation of O=P1(N(CCCl)CCCl)NCCCO1 (configuration not stated) [CYCLOPHOSPHAMIDE ANHYDROUS]
(A) Compound NOT metabolized

----------
test: The drug is tested on Edwardsiella tarda strain: ATCC23685 for biotransformation. The drug concentrations were measured before and after a 12-h incubation by liquid-chromatography-coupled mass spectrometry (LC–MS); conditions: 2 µM
endpoint: Bacterial Biotransformation

Known results for compounds:
CC[C@H](C)C(=O)O[C@H]1C[C@@H](C)C=C2C=C[C@H](C)[C@H](CC[C@@H]3C[C@@H](O)CC(=O)O3)[C@H]21 | Compound NOT metabolized
Cc1nc2n(c(=O)c1CCN1CCC(c3noc4cc(F)ccc34)CC1)CCCC2O (stereo not given) | Compound metabolized
Nc1nc(N)nc(-c2cc(Cl)ccc2Cl)n1.O=C(O)/C=C\C(=O)O [IRSOGLADINE MALEATE] | Compound NOT metabolized
CC(C)N(CCC(C(N)=O)(c1ccccc1)c1ccccn1)C(C)C.O=P(O)(O)O (stereo not given) [DISOPYRAMIDE PHOSPHATE] | Compound NOT metabolized
CO[C@]12C[C@@H](COC(=O)c3cncc(Br)c3)CN(C)[C@@H]1Cc1cn(C)c3cccc2c13 | Compound NOT metabolized
COC(=O)C1=C(C)NC(C)=C(C(=O)OC(C)C)C1c1cccc2nonc12 (stereo not given) | Compound NOT metabolized

(Q) # lookup: Bacterial Biotransformation of COc1cc2nc(N3CCN(C(=O)C4CCCO4)CC3)nc(N)c2cc1OC (stereo not given)
(A) Compound NOT metabolized

(Q) # lookup: Bacterial Biotransformation of CCC(COC(=O)c1cc(OC)c(OC)c(OC)c1)(c1ccccc1)N(C)C.O=C(O)/C=C\C(=O)O (stereo not given)
(A) Compound metabolized

(Q) # lookup: Bacterial Biotransformation of CCN(CC)CCOCCOC(=O)C1(c2ccccc2)CCCC1.O=C(O)CC(O)(CC(=O)O)C(=O)O [CARBETAPENTANE CITRATE]
(A) Compound metabolized

----------
experiment: The drug is tested on Blautia hansenii strain: DSM20583 for biotransformation. The drug concentrations were measured before and after a 12-h incubation by liquid-chromatography-coupled mass spectrometry (LC–MS); details: 2 µM
Non-standard residues stand in square brackets, D forms with d. Residues, ends and D or L forms follow the SMILES beside them. pGlu = O=C1CC[C@@H](C(=O)O)N1; Thz = O=C(O)[C@@H]1CSCN1
endpoint: Bacterial Biotransformation

COc1cc(C(=O)NCc2ccc(OCCN(C)C)cc2)cc(OC)c1OC [TRIMETHOBENZAMIDE] | Compound NOT metabolized
CC(C)(Oc1ccc(CCNC(=O)c2ccc(Cl)cc2)cc1)C(=O)O [BEZAFIBRATE] | Compound NOT metabolized
CC1OC(OC2C(O)CC(OC3C(O)CC(OC4CCC5(C)C(CCC6C5CCC5(C)C(C7=CC(=O)OC7)CCC65O)C4)OC3C)OC2C)CC(O)C1O (stereo not drawn) | Compound metabolized
O=C1CC[C@@H](C(=O)N2CSC[C@H]2C(=O)O)N1 [PIDOTIMOD] ([pGlu]-[Thz]-OH) | Compound metabolized
OC(Cn1cncn1)(Cn1cncn1)c1ccc(F)cc1F [FLUCONAZOLE] | Compound metabolized
OCCN(CCO)c1nc(N2CCCCC2)c2nc(N(CCO)CCO)nc(N3CCCCC3)c2n1 [DIPYRIDAMOLE] | Compound metabolized
C#C[C@]1(O)CC[C@H]2[C@@H]3CCC4=Cc5oncc5C[C@]4(C)[C@H]3CC[C@@]21C [DANAZOL] | Compound metabolized

Moving on to the next compound.
(Q) # lookup: Bacterial Biotransformation of CC(NC(C)(C)C)C(=O)c1cccc(Cl)c1 (stereo not drawn) [BUPROPION]
(A) Compound NOT metabolized
